- tested target: T1, Human soluble IL-6R (human, UniProt P08887 20-358)
- T1 construct: Soluble recombinant form; biotinylated in some assays; also called hIL-6R; human IL-6R
- T1 sequence (looked up): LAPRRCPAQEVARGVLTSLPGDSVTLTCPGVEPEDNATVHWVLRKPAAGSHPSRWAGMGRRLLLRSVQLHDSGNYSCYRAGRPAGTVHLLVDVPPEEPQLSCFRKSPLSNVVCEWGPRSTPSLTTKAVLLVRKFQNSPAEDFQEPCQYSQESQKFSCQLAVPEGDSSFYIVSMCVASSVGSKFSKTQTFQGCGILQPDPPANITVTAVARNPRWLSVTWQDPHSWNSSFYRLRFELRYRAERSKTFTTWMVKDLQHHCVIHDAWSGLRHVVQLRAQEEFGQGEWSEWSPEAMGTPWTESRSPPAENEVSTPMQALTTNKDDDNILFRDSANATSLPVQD
- procedure details: Alphascreen IL-6/IL-6R competition (IL-6R 0.3 nM, bio-IL-6 3 nM); row EC50 of the fit table, axis [competitor], M; blocked ligand IL-6
pIC50: −log10 of the molar value.
Measured pIC50 of individual entries
assay metric: pIC50

binder	assay metric	reported result
IL6R03 (VHH, also called PMP31A4; not shown: C-terminal c-myc and (His)6 tags) VHH: EVQLVESGGGLVQAGGSLRLSCAASGSIFKVNAMGWYRQAPGKQRELVAGIISGGSTNYADSVKGRLTISRDNAKNTVYLQMNSLKPEDTAVYYCSFVTTNSDYDLGRDYWGQGTQVTVSS	pIC50	9.73
IL6R62 (VHH) VHH: EVQLVESGGGLVQPGGSLRLSCAASGSIFKVNAMGWYRQAPGKGRELVAGIISGGSTNYADSVKGRFTISRDNAKNTVYLQMNSLRPEDTAVYYCSFVTTNSDYDLGRDYWGQGTLVTVSS	pIC50	9.55
IL6R64 (VHH) VHH: EVQLVESGGGLVQPGGSLRLSCAASGSIFKVNAMGWYRQAPGKGRELVAGIISGGSTNYADSVKGRLTISRDNAKNTVYLQMNSLRPEDTAVYYCAFVTTNSDYDLGRDYWGQGTLVTVSS	pIC50	9.97
IL6R61 (VHH) VHH: EVQLVESGGGLVQPGGSLRLSCAASGSIFKVNAMGWYRQAPGKGRELVAGIISGGSTNYADSVKGRLTISRDNAKNTVYLQMNSLRPEDTAVYYCSFVTTNSDYDLGRDYWGQGTLVTVSS	pIC50	9.47
IL6R63 (VHH) VHH: EVQLVESGGGLVQPGGSLRLSCAASGSIFKVNAMGWYRQAPGKGRELVAGIISGGSTNYADSVKGRLTISRDNAKNTLYLQMNSLRPEDTAVYYCSFVTTNSDYDLGRDYWGQGTLVTVSS	pIC50	9.19
